Molecular target: MAPKAP-K2 (Homo sapiens)
Sequence (P49137 whole entry): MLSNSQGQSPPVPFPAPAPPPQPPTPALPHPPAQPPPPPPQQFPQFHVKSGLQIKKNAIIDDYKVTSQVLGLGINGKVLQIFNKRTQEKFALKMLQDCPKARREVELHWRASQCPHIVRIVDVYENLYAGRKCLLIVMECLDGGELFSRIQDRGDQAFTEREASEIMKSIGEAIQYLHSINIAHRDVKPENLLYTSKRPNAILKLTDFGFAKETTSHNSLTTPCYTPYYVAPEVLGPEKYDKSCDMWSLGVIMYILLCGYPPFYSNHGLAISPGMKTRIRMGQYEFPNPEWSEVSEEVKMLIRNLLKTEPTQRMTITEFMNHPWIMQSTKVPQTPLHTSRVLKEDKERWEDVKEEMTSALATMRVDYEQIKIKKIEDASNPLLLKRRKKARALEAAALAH
Assay: MAPKAP-K2 enzyme activity inhibition assay, Method B (33P-ATP, MultiScreen-PH plate)
Format: biochemical
Conditions: recombinant human MAPKAP-K2, 0.5% DMSO, 30 min room temperature, read-out: Inhibitory activity (MAPKAP-K2 IC50 class)
pIC50: −log10 of the molar value.
Metric: pIC50

Solved cases below.
{"Molecule": "Cc1c(O[C@H]2CC[C@@H](N)CC2)nc2ccnn2c1NCc1ccccc1", "pIC50": "4.70 to 5.70"}
{"Molecule": "COC(=O)c1ccc(Nc2c(C)c(OC3CCCNC3)nc3ccnn23)cc1 (centres unmarked)", "pIC50": "4.70 to 5.70"}
{"Molecule": "CCOc1ccc(Nc2c(C)c(OC(CN)CN)nc3ccnn23)cc1", "pIC50": "4.00 to 4.70"}
{"Molecule": "CSc1nc2ccc(Nc3c(C)c(OC4CCCNC4)nc4ccnn34)cc2s1 (centres unmarked)", "pIC50": "≥ 5.70"}

Turning now to a further record.
Case CCOc1ccc(Nc2c(C)c(OCCNC)nc3ccnn23)cc1 , MAPKAP-K2 (Homo sapiens), pIC50 recorded as 4.00 to 4.70
